Data origin, for the record: the supplement of paper PMC13392028

# Test system: PyIESI-1 RRM domain (Plasmodium yoelii PY17X_0911200 aa 795-956, GST fusion)
# TEST: RBNS R-value (6-mer enrichment in protein-bound RNA vs input library) (ratio); higher = stronger binding preference
# CONDITION_LABEL: protein concentration: 500 nM
The full ranking holds about 4,100 sequences; the median of “RBNS R-value (6-mer enrichment in protein-bound RNA vs input library)” is about 0.96, and the highest 2% start at about 2.4. This excerpt belongs to a sample that is enriched for the highest values.

MACROMOLECULE_SEQUENCE | RBNS R-value
CCCUCC | 1.13
GAUUAA | 2.37
AGCUGA | 1.68
GGAGCG | 1.01
GUCUGG | 0.839
CAAGGA | 0.973
CAUUAC | 0.51
AUUAAC | 0.859
GAUUAG | 2.41
GCAGUG | 1.14
UAUUAC | 0.514
GAUUAC | 2.65
CAUUAG | 0.593
UCACCA | 0.849
CUGACC | 1.22
UUUACC | 0.778
CUGAAC | 1.06
GUGUGA | 1.51
CAUUAA | 0.435
CACCUG | 1.67
AGCCUU | 0.961
AUGAGA | 1.58
GUAUGU | 0.701

====

# Tested on: PyIESI-1 RRM domain (Plasmodium yoelii PY17X_0911200 aa 795-956, GST fusion)
# TEST: RBNS R-value (6-mer enrichment in protein-bound RNA vs input library) (ratio); higher = stronger binding preference; the methods of the paper give 50 / 100 / 500 nM protein instead
# CONDITION_LABEL: protein concentration: 500 nM
In all, about 4,100 sequences were measured (“RBNS R-value (6-mer enrichment in protein-bound RNA vs input library)”: median about 0.96, highest 2% from about 2.4 on). This excerpt belongs to a sample that is enriched for the highest values.
// label = met if RBNS R-value is not less than 1, otherwise not met

MACROMOLECULE_SEQUENCE | CATEGORY
AUGGGA | met
AAUGAC | met
UUCUGC | met
GACAAC | met
AGUGAC | met
GAUGAU | met
AGUGAU | met
CGUGAU | met
CAUGAU | met
UCUGGC | met
GAUAAU | met
UCGCGU | not met
CAUGAA | not met
AGUGAA | not met
CAAGGC | not met
GAACCU | met
GCGCAG | met
UGUGAG | met
UGUGAC | met
